// data source = ChEMBL document CHEMBL5126629

logD at 4 h values for the molecules below.
test: Lipophilicity, logD of the compound in octanol and phosphate buffer at pH 7.4 incubated for 4 hrs under shaking condition by liquid chromatography tandem mass spectrometry; assay type: physicochemical
A bare number is all that is needed in reply.

Worked examples follow.
INSERT INTO measurements (smiles_string, measured_result) VALUES
  ('Cc1cc2ccc(Cn3nccc3C(=O)N(C)c3ncccc3F)cc2nc1N', 1.8),
  ('Cc1cc2ccc(Cn3c(C(=O)N(C)c4ccccc4)coc3=O)cc2nc1N', 1.8),
  ('Cc1cc2ccc(Cn3c(C(=O)N(C)c4ccccn4)nn(C)c3=O)cc2nc1N', 0.9),
  ('Cc1cc2ccc(Cn3c(C(=O)N(C)c4ccccc4)nn(C)c3=O)cc2nc1N', 1.9),
  ('Cc1cc2ccc(Cn3c(C(=O)N(C)c4ccccc4)cccc3=O)cc2nc1N', 2);

### Prompt For the molecule Cc1cc2ccc(Cn3c(C(=O)N(C)c4ccccc4)nccc3=O)cc2nc1N , give its measured logD at 4 h value.
### Response 2.1

### Prompt Report logD at 4 h for Cc1cc2ccc(Cn3c(C(=O)N(C)c4ccccc4)noc3=O)cc2nc1N
### Response 2.9

----------
assay: Efflux ratio of apparent permeability across […] in MDCK-MDR1 incubated for 120 mins by LC-MS analysis; assay type: ADME, cell-based, Canis lupus familiaris; conditions: dog, mdck-mdr1, 2 h
Ratio values, listed per item
Please respond with just the number, no unit label.

Below, each entry is followed by its recorded Ratio result.
INSERT INTO measurements (smiles_string, measured_result) VALUES
  ('Cc1cc2ccc(Cn3c(C(=O)N(C)c4ccccn4)cn(C)c3=O)cc2nc1N', 14),
  ('Cc1cc2ccc(Cn3nncc3C(=O)N(C)c3ccccc3)cc2nc1N', 3),
  ('Cc1cc2ccc(Cn3c(C(=O)N(C)c4ccccc4)nn(C)c3=O)cc2nc1N', 6);

### Prompt Output measured Ratio for this item: Cc1cc2ccc(Cn3c(C(=O)N(C)c4ccccc4)cn(C)c3=O)cc2nc1N
### Response 35

### Prompt Tell me measured Ratio for Cc1cc2ccc(Cn3c(C(=O)N(C)c4ccccc4)cccc3=O)cc2nc1N please.
### Response 22

----------
experiment: Metabolic stability in human liver microsomes assessed as intrinsic clearance measured upto 30 mins in presence of NADPH by LC/MS/MS analysis; format: ADME, Microsome; details: read-out: CLH
# thresholds on microsomal CLint define classes: low band (below 90 µL/min/mg), middle band (90 µL/min/mg to below 400 µL/min/mg), high band (400 µL/min/mg or more)

Some solved entries appear below for comparison.
INSERT INTO assay_data (smiles_string, class) VALUES
  ('Cc1cc2ccc(Cn3c(C(=O)N(C)c4ccccc4)noc3=O)cc2nc1N', 'high band'),
  ('Cc1cc2ccc(Cn3c(C(=O)N(C)c4ccccc4)coc3=O)cc2nc1N', 'middle band'),
  ('Cc1cc2ncc(Cn3c(C(=O)N(C)c4ccccc4)cn(C)c3=O)cc2nc1N', 'low band'),
  ('Cc1cc2ccc(Cn3c(C(=O)N(C)c4ccccc4)nn(C)c3=O)cc2nc1N', 'middle band'),
  ('Cc1cc2ccc(Cn3c(C(=O)N(C)c4ccccn4)cn(C)c3=O)cc2nc1N', 'low band'),
  ('Cc1cc2ccc(Cn3c(C(=O)N(C)c4ccccc4)cccc3=O)cc2nc1N', 'high band'),
  ('Cc1cc2ccc(Cn3c(C(=O)N(C)c4ccccn4)nn(C)c3=O)cc2nc1N', 'low band'),
  ('Cc1cc2ccc(Cn3nncc3C(=O)N(C)c3ccccc3)cc2nc1N', 'high band');

### Prompt Field: class (microsomal CLint) — entry: Cc1cc2ccc(Cn3c(C(=O)N(C)c4ccccc4)nccc3=O)cc2nc1N
### Response middle band
